system: PC-3; assay: NCI tumour cell line growth inhibition, 48 h
Calls of active or inactive are those of the source. Cut-off read from the data, not from the text of the source: active = GI50 up to about 1.1 µM and inactive = higher.
test_readout: GI50

1) C[C@H](NC(=O)C(Cc1ccccc1)(Cc1ccc(O)cn1)NC(=O)c1ccccc1)c1ccccc1 (some centres not stated) : 14.2 µM (inactive)
2) OC(C#CCN1CCCC1)(c1ccccc1)c1ccccc1Cl (configuration not stated) : 27.8 µM (inactive)
3) COC(=O)C1=C(OC(=O)/C=C/c2ccc(Cl)cc2)C(C(=O)OC)[C@]2(O)[C@@H](C(=O)OC)[C@H]1C[C@@H](c1ccccc1)[C@@H]2C(=O)OC (some centres not stated) : 5.65 µM (inactive)
4) O=C(O)CCN1C(=S)CSC1=S : > 100 µM (inactive)
5) CN(CC(N)=O)C(=O)N(CCCl)N=O : > 100 µM (inactive)
6) COC1CC(OC2CCC3(C)C(=CCC4C3C(OC(C)=O)C(OC(=O)CC(C)C)C3(C)C(C(C)=O)CCC43O)C2)OC(C)C1OC1CC(OC)C(OC2CC(OC)C(OC3OC(C)C(OC4OC(CO)C(O)C(O)C4O)C(OC)C3O)C(C)O2)C(C)O1 (configuration not stated) : > 75 µM (inactive)
7) COc1ccc(O)c(/C=N/NC(=S)N2CCCCC2)c1 : 5 µM (inactive)
8) CC(NC1=NCCO1)c1ccco1 (configuration not stated) : > 100 µM (inactive)
9) CC(C)(C)C(=O)c1c(O)c2ccccc2c2ccccc2c1=O : > 100 µM (inactive)
10) COc1cccc(C2c3cc4c(cc3OC(NNC(N)=O)C2C)OCO4)c1O (configuration not stated) : 1.15 µM (inactive)
11) COC1=C(OC)C(=O)C(Cc2c(-c3ccccc3)nc3sc(Cl)cn23)=C(C)C1=O : 16.6 µM (inactive)
12) COc1cc(C=O)cc(/C=N/c2ccc(Br)cc2)c1O : 2.81 µM (inactive)

* * *

tested on: OVCAR-3; assay: NCI tumour cell line growth inhibition, 48 h
Active and inactive are the calls of the source. Cut-off read from the data, not from the text of the source: active = GI50 up to about 1.1 µM and inactive = higher.
Labels: active, inactive

1. COc1cccc(N2C(=O)[C@H]3[C@H]4CC(C(C)(C)C)CC[C@H]4c4c([nH]c5ccccc45)[C@H]3C2=O)c1 (stereo partly specified) : inactive
2. CCCCC1CCCCCCc2[nH]c(/C=C3\N=C(c4ccc[nH]4)C=C3OC)cc21 (stereo unspecified) : active
3. CSc1c([S+](C)[O-])[nH]c2cc(Br)cc(Br)c12 (stereo unspecified) : inactive
4. CCOC(=O)c1c(N2CCCC2)[nH]c(=O)c(C(c2cccs2)c2c(O)c(C(=O)OCC)c(N3CCCC3)[nH]c2=O)c1O : inactive
5. O=C(Nc1ccc(F)cc1)c1cc2c(cc1Cl)Sc1nccn1S2(=O)=O : inactive
6. CCCCS(=O)(=O)Nc1ccc(Nc2c3ccccc3nc3ccccc23)c(OC)c1 : inactive
7. COC(=O)/C=C/c1ccccc1N=[S@](C)(=O)c1ccc(C)cc1 : inactive
8. CCOC(=O)NNC(=O)NCCNC(=O)NNC(=O)OCC : inactive
9. Cc1nc2ccc(S(=O)(=O)NS(=O)(=O)c3ccc(-c4ccccc4)cc3)cc2c(=O)n1NS(=O)(=O)c1ccc(-c2ccccc2)cc1 : inactive
10. COC1=C(OC)C(=O)C(Cc2c(-c3ccccc3)nc3sc(Cl)cn23)=C(C)C1=O : inactive
11. O=S(=O)(O)Nc1ccc(-c2nc3ccccc3s2)cc1Cl : inactive
12. COc1cccc2cc(C)c(C(=O)c3ccccc3)nc12 : inactive
13. Cc1cc2c(cc1C(=O)CCC(=O)O)CC1(C2)Cc2cc(C)c(C(=O)CCC(=O)O)cc2C1 : inactive
14. NS(=O)(=O)c1nnc(NC(=O)C23CC4CC(CC(C4)C2)C3)s1 : inactive
15. COC(=O)C1Cc2cc3c(cc2C1)CCC3 : inactive
16. COc1ccc2c(c1)CCCN1Cc3cc(OC)c(OC)cc3CC21 (stereo unspecified) : inactive
17. COC(=O)c1cc(=O)nc2cc3cccccc3n12 : inactive
18. CC(C)Cc1c(C#N)c(C#N)c(N)n1Cc1ccccc1 : inactive
19. O/N=C1\Nc2ccccc2OCc2cc(Br)c(Br)cc2COc2ccccc2N\C1=N/O : inactive
20. O=C(NO)C12C3C4C1C1C2C3C41C(=O)NO (stereo unspecified) : inactive
21. Brc1nc2c3ccccc3ncn2c1Br : active

* * *

system: KM12; experiment: NCI tumour cell line growth inhibition, 48 h
Active and inactive are the calls of the source. Cut-off read from the data, not from the text of the source: active = GI50 up to about 1.1 µM and inactive = higher.
test_readout: GI50

1. CCSc1nnc(CSc2nc(-c3ccccc3)c(-c3ccccc3)[nH]2)n1-c1ccccc1 : 16.9 µM (inactive)
2. COC(=O)NNc1c([N+](=O)[O-])cnn(-c2ccccc2)c1=O : 5.19 µM (inactive)
3. CC(C)[C@@H]1C=C(c2ccccc2)c2ccccc2C1C(C#N)(C#N)C(C)C (stereo not given in full) : > 100 µM (inactive)
4. COC(=O)c1cc(=O)nc2cc3cccccc3n12 : > 100 µM (inactive)
5. COc1ccc2c(c1)CCCN1Cc3cc(OC)c(OC)cc3CC21 (stereo not given) : > 100 µM (inactive)
6. Cc1ccc(C(=O)N/N=C2/C(=O)c3c4ccccc4cc4cccc2c34)cc1 : 3.89 µM (inactive)
7. O=C1c2cc3c(cc2CC12Cc1cc4c(cc1C2)CCC4)CCC3 : > 100 µM (inactive)
8. CC1=C(C(=O)Nc2ccc(Cl)c(Cl)c2)C(c2ccc([N+](=O)[O-])cc2)C(C(=O)Nc2ccc(Cl)c(Cl)c2)=C(C)N1 : 1.82 µM (inactive)
9. CC1=C[P+](Cc2ccccc2)(c2ccccc2)CC1 (stereo not given) : > 100 µM (inactive)
10. Cc1nc(C)c(C(=O)NNC(=O)C[N+](C)(C)C)cc1C(=O)NNC(=O)C[N+](C)(C)C : > 100 µM (inactive)

* * *

test system: T47D; assay: NCI tumour cell line growth inhibition, 48 h
Activity calls are given as the source filed them. No stated cut-off is given here; in the data, active = GI50 up to about 1.1 µM and inactive = higher.
Labels: active, inactive

1) O=C(OCc1ccccc1)N(CCCCN(CCCNC(=O)C(F)(F)F)C(=O)OCc1ccccc1)CCCNC(=O)C(F)(F)F : inactive
2) O=S1(=O)N=C(SCc2c[nH]c3ccccc23)N(c2ccccc2)c2ccncc21 : inactive
3) CC(C)(C)c1cc(C(=O)/C=C/C=C/c2ccccc2)cc(C(C)(C)C)c1O : inactive
4) O=C1/C(=C\c2ccc(Br)cc2)CCCc2ccccc21 : inactive
5) O=C(Cc1ccccc1)NN1C(=O)/C(=C\c2ccccc2O)S/C1=N\c1ccccc1 : inactive
6) CC(C)c1cc(C(C)C)c(B(c2ccccc2)c2ccccc2)c(C(C)C)c1B(c1ccccc1)c1ccccc1 : inactive
7) N=C(N)SCCc1ccncc1 : inactive
8) O=C(O/C=C\OC1CCCC1(c1ccccc1)c1ccccc1)c1ccccc1 (stereo not given) : inactive
9) CCOC(=O)Cc1csc(NC(NC(=O)OCC)(C(=O)OCC)C(F)(F)F)n1 (stereo not given) : inactive
10) C/C(=N\NC(=S)N1CC2CCC(CC2)C1)c1cccc(C)n1 : active
11) COc1ccc(OC)c2sc(N3C(=O)/C(=C/c4ccc(N(C)C)cc4)N=C3c3ccccc3)nc12 : inactive
12) COc1cccc2c(NNc3ccc(Cl)cc3)c3ccc([N+](=O)[O-])cc3nc12 : inactive
13) CC1(C)[C@@H](Cn2cnc3c(N)ncnc32)CC[C@@]1(C)CO : inactive
14) CC(=O)OCC1OC(n2c(-c3ccccc3)c(/N=N/c3ccc(C)cc3)c(C)c(C#N)c2=S)C(OC(C)=O)C(OC(C)=O)C1OC(C)=O (stereo not given) : inactive
15) O=C(C/C=C/c1ccccc1)c1ccccc1 : inactive

* * *

tested on: SR; assay: NCI tumour cell line growth inhibition, 48 h
Active and inactive are the calls of the source. No stated cut-off is given here; in the data, active = GI50 up to about 1.1 µM and inactive = higher.
Labels: TRUE for active, FALSE for inactive

1. Cc1cc(O)nc(NN2C(Cl)C(=O)C2c2ccc(Cl)cc2)n1 (stereo unspecified) : FALSE
2. CC(=O)OCC12C(=O)C[C@@H](C)C3(CC(c4ccoc4)OC3=O)C1CCC(OC(C)=O)C21CO1 (stereo partly specified) : FALSE
3. Cc1ccc(NC(=O)C(=O)C2NC(=S)NC2=O)c([N+](=O)[O-])c1 (stereo unspecified) : FALSE
4. O=C(O)CSc1nc2ccccc2[nH]1 : FALSE
5. CC(NNC(=O)c1ccncc1)c1ccccc1 (stereo unspecified) : FALSE
6. CCOC(=O)CNC(=O)C(C)NC(=O)C(NC(=O)CC(c1ncc[nH]1)c1ncc[nH]1)C(C)CC (stereo unspecified) : FALSE
7. O=C1c2cc3c(cc2CC12Cc1cc4c(cc1C2)CCC4)CCC3 : FALSE
8. CCN(CC(=O)O)C(=O)c1cccnc1 : FALSE
9. Cc1cn([C@H]2[C@@H](CO)C[C@H]2O)c(=O)[nH]c1=O : FALSE
10. O=C1N(C2CCCCC2)C(=O)N1C1CCCCC1 : TRUE
11. O=c1c2c3c(sc2nc2n1N=C(c1ccc([N+](=O)[O-])cc1)CS2)CCCC3 : FALSE
